- Tested on: HUVEC (human umbilical vein endothelial cells)
- assay.procedure: HUVEC cell attachment on hydrogels based on various self-assembling sequence
- test.context: HUVEC cultured for three days

substance: Ac(FKFQ)3-CONH2 (Ac-FKFQFKFQFKFQ-NH2) [FKF = 1% solution; FKF-2P = 2% solution, reference compound]
Cell attachment: ++ (++: 20-50%)
//
substance: AcIEIKIEIKIGGPFSSTKT-CONH2 [EPFS]
Cell attachment: + (+: Weak(<20%))
//
substance: AcIEIKIEIKIGGSKPPGTS-CONH2 [ESKP]
Cell attachment: + (+: Weak(<20%))
//
substance: Ac-IEIKIEIKI-NH2 [reference compound]
Cell attachment: ++ (++: 20-50%)
